system: A2780 human ovarian carcinoma cells; test: In vitro cytotoxic activity of the combination with SN-38 (cell proliferation, cellular ATP monitoring); type: cell-based; settings: Homo sapiens; single agent; A2780; SN-38 1 hour, compound of formula (I) 24 hours; counted 72 hours after first treatment
reported_endpoint: pIC50
Keep it numeric: pIC50 is minus log10 of the concentration in mol/L.

Sample CNC(=O)c1nn(C)c2c1C(C)(C)Cc1cnc(Nc3ccc(N4CCN(C)CC4)cc3)nc1-2 [compound of formula (I)] — what was its pIC50?
6.16
